Experiment: Quantitative highthroughput screen to assess conditional lethalithy of P12 Ichikawa cells grown in RPMI1640 with untreated serum (RPMI+s) (AID 1963881); note: nearly all actives have a fitted effect of over 35% in size; note: potency is the fitted concentration of half-maximal effect
Settings: ATP luminescence, 48 h; viability; series mostly up to 45.8 µM
Procedure: Assay Provider: Jason Cantor Ph.D. Department of Biochemistry University of Wisconsin-Madison, Madison, WI, USA Chemical screening studies have identified drug sensitivities across hundreds of cancer cell lines but most putative therapeutics fail to translate. […] Sets of conditional anticancer compounds spanned phases of clinical development and included non-oncology drugs were assessed. […] 6; Detection; Luminescence, Viewlux PerkinElmer. […]
Inconclusive results are not listed. The source made the active and inactive calls. Calls come from the whole dose curve; as a rule, active = well fitted cell-killing curve with a large enough effect; inconclusive = small, poorly fitted or top-dose-only effect; inactive = flat fitted curve, though single readings scatter.
observed.property: Potency

# chemical.smiles, observed
records = [
    ("COC(=O)C[C@](O)(CCCC(C)(C)O)C(=O)O[C@@H]1C(OC)=C[C@]23CCCN2CCc2cc4c(cc2[C@H]13)OCO4", "inactive"),
    ("COC(=O)Nc1nc2ccc(C(=O)c3cccs3)cc2[nH]1", "29.6 nM (active)"),
    ("CC(C)(Sc1cc(C(C)(C)C)c(O)c(C(C)(C)C)c1)Sc1cc(C(C)(C)C)c(O)c(C(C)(C)C)c1", "inactive"),
    ("NC(=O)NO", "16600 nM (active)"),
    ("Cc1[nH]nc2ccc(-c3cncc(OC[C@@H](N)Cc4ccccc4)c3)cc12", "2960 nM (active)"),
]
